target: purified human plasma kallikrein (Homo sapiens (Human)); experiment: biochemical; type: biochemical; conditions: read-out: Plasma Kallikrein Ki
Sequence (P03952 whole entry, looked up): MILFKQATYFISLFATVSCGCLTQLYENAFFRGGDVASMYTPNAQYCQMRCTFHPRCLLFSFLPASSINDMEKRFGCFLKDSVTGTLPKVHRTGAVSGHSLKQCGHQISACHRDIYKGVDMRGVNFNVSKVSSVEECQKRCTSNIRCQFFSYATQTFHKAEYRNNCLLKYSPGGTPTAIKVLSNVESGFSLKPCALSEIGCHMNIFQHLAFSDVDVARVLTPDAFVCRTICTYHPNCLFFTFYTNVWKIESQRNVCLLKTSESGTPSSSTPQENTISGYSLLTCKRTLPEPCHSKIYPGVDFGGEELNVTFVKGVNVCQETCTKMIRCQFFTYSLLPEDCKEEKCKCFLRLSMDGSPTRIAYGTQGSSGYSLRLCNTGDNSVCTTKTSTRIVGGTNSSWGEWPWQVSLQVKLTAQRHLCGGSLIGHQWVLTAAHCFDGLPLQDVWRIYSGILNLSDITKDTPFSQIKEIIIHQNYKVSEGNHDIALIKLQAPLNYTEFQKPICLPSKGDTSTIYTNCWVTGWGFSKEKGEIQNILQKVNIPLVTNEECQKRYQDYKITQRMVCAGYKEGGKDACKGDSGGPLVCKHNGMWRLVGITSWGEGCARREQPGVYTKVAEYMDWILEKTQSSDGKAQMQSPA
Sequence (P03952 whole entry partner, looked up): as the sequence (P03952 whole entry, looked up) above
pKi: −log10 of the molar value. Counter-ions that a name gives are not always drawn.
// class 0 strictly below 8 in pKi; class 1 otherwise

Previously resolved entries follow.
Exam item: decide whether the reported pKi for COC(=O)c1ccc2c(c1)-c1ccnc(c1)[C@@H](N1CCC(c3c(C(F)(F)F)ccc(Cl)c3F)=CC1=O)CCC[C@@H](C)C(=O)N2 [Example 186] is at least 8.
class 0

Same question, COC(=O)Nc1ccc2c(c1)NC(=O)[C@H](C)CCC[C@H](N1CCC(c3c(F)ccc(Br)c3F)=CC1=O)c1cc-2ccn1 [Example 190] this time
class 1

Same question, C[C@@H]1CCC[C@H](n2ccc(-c3cccc(Cl)c3F)cc2=O)c2cc(ccn2)-c2ccccc2NC1=O [Example 65, TFA salt] this time
class 0

Same question, C[C@@H]1CCC[C@H](N2CCC(c3c(F)ccc(Cl)c3F)=CC2=O)c2cc(ccn2)-c2ccc(Nc3ccccn3)cc2NC1=O [Example 88] this time
class 1

Same question, C[C@@H]1CCC[C@H](N2CCC(c3c(F)ccc(Cl)c3F)=CC2=O)c2cc(ccn2)-c2ccc(NC3O[C@@H](CO)[C@H](O)[C@@H](O)[C@@H]3O)cc2NC1=O (stereo partly drawn) [Example 131] this time
class 0

Next:
Exam item: decide whether the reported pKi for C[C@@H]1CCC[C@H](N2CCC(c3c(F)ccc(Cl)c3F)=CC2=O)c2cc(ccn2)-c2ccc(NC3O[C@H](CO)[C@@H](O)[C@H](O)[C@H]3O)cc2NC1=O (stereo partly drawn) [Example 126] is at least 8.
class 0
